Hello, the source for this data is patent US20230065306A1, in case you need it.

We begin with a simple list: items and their reported EC50 (read off the curve).
Target Desc: T1, human CD123 (full-length, on cells) (human, UniProt P26951 19-378)
T1 construct: also called CD123-FL; interleukin-3 receptor alpha chain
T1 sequence (P26951 19-378): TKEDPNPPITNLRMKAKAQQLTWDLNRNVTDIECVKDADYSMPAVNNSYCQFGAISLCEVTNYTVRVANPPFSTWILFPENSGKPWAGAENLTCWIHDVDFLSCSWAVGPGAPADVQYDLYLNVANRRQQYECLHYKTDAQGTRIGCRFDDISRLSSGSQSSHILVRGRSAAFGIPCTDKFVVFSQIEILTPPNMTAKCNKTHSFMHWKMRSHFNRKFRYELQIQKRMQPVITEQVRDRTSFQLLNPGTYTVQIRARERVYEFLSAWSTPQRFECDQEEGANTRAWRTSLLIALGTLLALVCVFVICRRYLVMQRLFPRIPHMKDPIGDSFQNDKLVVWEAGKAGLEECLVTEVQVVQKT
Run Description: flow cytometry, HEK 293 cells transfected with full-length CD123 (CD123-FL); Median RL-1H

4F2-IgG1 (Fc fusion) EVQLVQSGGGLVQAGGSLRLSCAASGRTVSNYPMAWFRQAPGKEREFVAHISWSGITSILNSVNDRFTISRDNAKNTIYLQMNSLKPEDTAVYYCAAAQRPTAGPKGPFGYWGQGTQVTVDKTHTCPPCPAPGGPSVFLFPPKPKDTLMISRTPEVTCVVVDVSHEDPEVKFNWYVDGVEVHNAKTKPREEQYNSTYRVVSVLTVLHQDWLNGKEYKCKVSNKALPAPIEKTISKAKGQPREPQVYTLPPSRDELTKNQVSLTCLVKGFYPSDIAVEWESNGQPENNYKTTPPVLDSDGSFFLYSKLTVDKSRWQQGNVFSCSVMHEALHNHYTQKSLSLSPGK    1 to 2 nM

Here is the next item to consider.
response.value for 1B11-IgG1 (Fc fusion) QVQLVQSGGGSVQAGGSLRLSCAAAGRTQSAVAMGWFRQDPGKDRDFVAAIRWSGGNTYYADSAEGRFTISRDNAKNTVYLQMDSLKPEDTAVYSCAISMNHFGMYDYWGQGTQVTVDKTHTCPPCPAPGGPSVFLFPPKPKDTLMISRTPEVTCVVVDVSHEDPEVKFNWYVDGVEVHNAKTKPREEQYNSTYRVVSVLTVLHQDWLNGKEYKCKVSNKALPAPIEKTISKAKGQPREPQVYTLPPSRDELTKNQVSLTCLVKGFYPSDIAVEWESNGQPENNYKTTPPVLDSDGSFFLYSKLTVDKSRWQQGNVFSCSVMHEALHNHYTQKSLSLSPGK (field: EC50 (read off the curve)) = ~0.6 nM
